Entries and their measured Hepatotoxicity (association with vascular disease) follow.
- stated_conditions: human
// no unit, no text: just the number

CC[C@@]1(O)C[C@H](O[C@H]2C[C@H](N(C)C)[C@H](O[C@H]3C[C@H](O)[C@H](O[C@H]4CCC(=O)[C@H](C)O4)[C@H](C)O3)[C@H](C)O2)c2c(cc3c(c2O)C(=O)c2c(O)cccc2C3=O)[C@H]1C(=O)OC | 0
NS(=O)(=O)c1cc2c(cc1C(F)(F)F)NC(Cc1ccccc1)NS2(=O)=O (configuration not stated) [BENDROFLUMETHIAZIDE] | 0
Clc1ccc2c(c1)C(N1CCNCC1)=Nc1ccccc1O2 | 0
COc1ccc(OC)c(Cc2cnc3nc(N)nc(N)c3c2C)c1 | 0
CCc1oc2ccccc2c1C(=O)c1cc(Br)c(O)c(Br)c1 | 0
CC(O)(CS(=O)(=O)c1ccc(F)cc1)C(=O)Nc1ccc(C#N)c(C(F)(F)F)c1 (configuration not stated) [BICALUTAMIDE] | 0
CCO.CN1CCC[C@H]1c1cccnc1 | 0
CC[C@@]1(O)C(=O)OCc2c1cc1n(c2=O)Cc2cc3c(CN(C)C)c(O)ccc3nc2-1 | 0
O=c1[nH]c(=O)n([C@H]2C[C@H](O)[C@@H](CO)O2)cc1F | 3
O=C1Nc2ccccc2C1(c1ccc(O)cc1)c1ccc(O)cc1 | 0

Challenge: Given Cc1noc(NS(=O)(=O)c2ccc(N)cc2)c1C , respond with its Hepatotoxicity (association with vascular disease).
Response given: 0

Challenge: Return value of Hepatotoxicity (association with vascular disease) for input Nc1cc(-c2ccncc2)c[nH]c1=O , no commentary.
Response given: 0

Challenge: Return Hepatotoxicity (association with vascular disease) for the following compound: CCC(C)n1ncn(-c2ccc(N3CCN(c4ccc(OCC5COC(Cn6cncn6)(c6ccc(Cl)cc6Cl)O5)cc4)CC3)cc2)c1=O (configuration not stated)
Response given: 0

Challenge: Supply Hepatotoxicity (association with vascular disease) value. Item: CN1CCN(CCCN2c3ccccc3Sc3ccc(S(=O)(=O)N(C)C)cc32)CC1
Response given: 0

Challenge: // Input: O=C(O)COCCN1CCN(C(c2ccccc2)c2ccc(Cl)cc2)CC1 (configuration not stated) . Output its Hepatotoxicity (association with vascular disease) only.
Response given: 0

Challenge: Let me know recorded Hepatotoxicity (association with vascular disease) for C[C@H](CCc1ccccc1)NC[C@H](O)c1ccc(O)c(C(N)=O)c1 , thanks.
Response given: 0

Challenge: Specify reported Hepatotoxicity (association with vascular disease) for the compound shown: OC(CCCN1CCCCC1)(c1ccccc1)c1ccccc1
Response given: 0

* * *

- test_protocol: Proposed mechanism(s) of liver damage. [column 'MEC' in source]
- stated_conditions: human
measurement_label: Hepatotoxicity (mechanism)

Please review the following examples before continuing.
CCCc1cc(C(N)=S)ccn1 [PROTIONAMIDE] | Dose-dependant
COc1ccccc1Oc1c(NS(=O)(=O)c2ccc(C(C)(C)C)cc2)nc(-c2ncccn2)nc1OCCO [BOSENTAN] | Dose-dependant
Nc1nc(=O)[nH]cc1F [FLUCYTOSINE] | Dose-dependant
CNC(=O)c1c(I)c(C(=O)NCC(=O)Nc2c(I)c(C(=O)O)c(I)c(C(=O)NCCO)c2I)c(I)c(N(C)C(C)=O)c1I [IOXAGLIC ACID] | Allergic
O=C(O)c1cccnc1Nc1cccc(C(F)(F)F)c1 [NIFLUMIC ACID] | Allergic

Challenge: Supply reported Hepatotoxicity (mechanism) belonging to this compound: Nc1ccc(O)c(C(=O)O)c1 [MESALAMINE]
Response given: Allergic

Challenge: # return recorded Hepatotoxicity (mechanism) for entry Cc1ccc(-c2nc3ccc(C)cn3c2CC(=O)N(C)C)cc1 [ZOLPIDEM]
Response given: Dose-dependant

Challenge: Input CC(=O)[C@@]1(O)CC[C@H]2[C@@H]3C=C(Cl)C4=CC(=O)[C@@H]5C[C@@H]5[C@]4(C)[C@H]3CC[C@@]21C [CYPROTERONE] , output reported Hepatotoxicity (mechanism).
Response given: Dose-dependant

* * *

- stated_conditions: human
measurement_label: Hepatotoxicity (cirrhosis)
Give a plain numeric answer without units written out.

Challenge: Name the recorded Hepatotoxicity (cirrhosis) of the item CCCCc1oc2ccccc2c1C(=O)c1cc(I)c(OCCN(CC)CC)c(I)c1 in your answer.
Response given: 17

Challenge: Quote Hepatotoxicity (cirrhosis) reported for CN(C)[C@@H]1C(O)=C(C(N)=O)C(=O)[C@@]2(O)C(O)=C3C(=O)c4c(O)ccc(Cl)c4[C@@H](O)[C@H]3C[C@@H]12 please.
Response given: 0

Challenge: Determine its reported Hepatotoxicity (cirrhosis): CC(=O)Oc1ccccc1C(=O)O
Response given: 1

Challenge: Please report Hepatotoxicity (cirrhosis) for the following molecule: CC1=C(CC(=O)O)c2cc(F)ccc2/C1=C\c1ccc([S+](C)[O-])cc1 (stereo not drawn)
Response given: 0

Challenge: In one line, give reported Hepatotoxicity (cirrhosis) of the entry C[C@]12CCC(=O)C=C1CC[C@@H]1[C@@H]2C(=O)C[C@@]2(C)[C@H]1CC[C@]2(O)C(=O)CO .
Response given: 0

Challenge: Entry O=c1n(CCCN2CCN(c3cccc(Cl)c3)CC2)nc2ccccn12 needs its Hepatotoxicity (cirrhosis) filled in; supply it.
Response given: 0

Challenge: Using the record for CC(C)(S)C(=O)N[C@@H](CS)C(=O)O , state its measured Hepatotoxicity (cirrhosis).
Response given: 0

Challenge: Return Hepatotoxicity (cirrhosis) (reported value) for this molecule: OC(CCN1CCCCC1)(c1ccccc1)C1CCCCC1 (stereo not drawn)
Response given: 0

Challenge: Identify measured Hepatotoxicity (cirrhosis) associated with Cc1c(O)cccc1C(=O)N[C@@H](CSc1ccccc1)[C@H](O)CN1C[C@H]2CCCC[C@H]2C[C@H]1C(=O)NC(C)(C)C
Response given: 0

* * *

- test_protocol: Proposed mechanism(s) of liver damage. [column 'MEC' in source]
- stated_conditions: human
measurement_label: Hepatotoxicity (mechanism)

CN(C)[C@@H]1C(O)=C(C(N)=O)C(=O)[C@@]2(O)C(O)=C3C(=O)c4c(O)cccc4[C@@](C)(O)[C@H]3[C@H](O)[C@@H]12 | Dose-dependant
COc1c(N2C[C@@H]3CCCN[C@@H]3C2)c(F)cc2c(=O)c(C(=O)O)cn(C3CC3)c12 | Dose-dependant

* * *

- stated_conditions: human
Some compounds, each annotated with its measured Hepatotoxicity (association with vascular disease).
Please reply with the number alone, leaving off any unit.

Previously resolved entries follow.
CO/N=C(\C(=O)N[C@@H]1C(=O)N2C(C(=O)[O-])=C(C[n+]3cccc4c3CCC4)CS[C@H]12)c1csc(N)n1 | 0
CNC1Cc2ccccc2N(C)c2ccccc21 (centres undefined) | 0

Challenge: Tell us which Hepatotoxicity (association with vascular disease) value is on record for Cl[C@H]1[C@H](Cl)[C@@H](Cl)[C@@H](Cl)[C@H](Cl)[C@H]1Cl
Response given: 0

Challenge: Determine its reported Hepatotoxicity (association with vascular disease): CC1=C(C(=O)O)N2C(=O)[C@@H](NC(=O)[C@H](N)c3ccccc3)[C@H]2SC1 [CEPHALEXIN ANHYDROUS]
Response given: 0

Challenge: Give Hepatotoxicity (association with vascular disease) for N[C@H](C(=O)O)[C@@H]1CC(Cl)=NO1
Response given: 0

Challenge: Return Hepatotoxicity (association with vascular disease) (reported value) for this compound: Cc1nnc2n1-c1ccc(Cl)cc1C(c1ccccc1Cl)=NC2
Response given: 0

Challenge: Supply Hepatotoxicity (association with vascular disease) value. Item: CCN(CC)CCCC(C)Nc1ccnc2cc(Cl)ccc12 (centres undefined)
Response given: 0

Challenge: Respond only with Hepatotoxicity (association with vascular disease) recorded for COc1cc2oc(=O)c(C)c(C)c2cc1OCCCN1CCN(c2ccccc2OC)CC1
Response given: 0

Challenge: Let me know recorded Hepatotoxicity (association with vascular disease) for CNC(=O)OCc1cccc(COC(=O)NC)n1 [PYRICARBATE] , thanks.
Response given: 0

* * *

- stated_conditions: human, serum
measurement_label: Hepatotoxicity (moderate)
// return a plain number; no unit text

A selection of reference data follows.
C#C[C@]1(O)CC[C@H]2[C@@H]3CCC4=CC(=O)CC[C@@H]4[C@H]3CC[C@@]21CC | 1
Clc1ccc(C(c2ccccc2Cl)C(Cl)Cl)cc1 (centres undefined) | 5
Cc1ncc(C[n+]2csc(CCO)c2C)c(N)n1 | 0
O=c1[nH]c(=O)n([C@@H]2O[C@H](CO)[C@@H](O)[C@@H]2O)cc1/C=C/Br | 1
CC(NCCc1ccc(O)cc1)C(O)c1ccc(O)cc1 (centres undefined) | 6
O=c1[nH]c(=O)n([C@H]2C[C@H](O)[C@@H](CO)O2)cc1I | 3
COc1ccc(C(=O)Nc2ccccc2CCC2CCCCN2C)cc1 (centres undefined) [ENCAINIDE] | 0
COc1cc2nc(N3CCN(C(=O)c4ccco4)CC3)nc(N)c2cc1OC | 0

Challenge: Indicate its recorded Hepatotoxicity (moderate); the compound in question is COc1nc(C)nc(Cl)c1N=C1NCCN1
Response given: 0

Data provenance: ChEMBL document CHEMBL3137667
